Data provenance: ChEMBL document CHEMBL1201862

system: Malme-3M; assay: NCI tumour cell line growth inhibition, 48 h
Activity calls are given as the source filed them. Cut-off read from the data, not from the text of the source: active = GI50 up to about 1.1 µM and inactive = higher.
quantity_name: GI50

Ask: # GI50 lookup, item O=c1cc(CO)n(CCc2c[nH]c3ccccc23)cc1O
Result: 13.4 µM (inactive)

Ask: # GI50 lookup, item CNC(=O)C1OC(n2cnc3c(NCc4cccc(I)c4)nc(Cl)nc32)C(O)C1O (stereo unspecified)
Result: 3.64 µM (inactive)

Ask: # GI50 lookup, item CCC1(c2ccc(N3C(=O)c4cc(OC)c(OC)cc4C3=O)cc2)CCC(=O)NC1=O (stereo unspecified)
Result: > 10 µM (inactive)

Ask: # GI50 lookup, item CN(NC(=O)c1cccs1)C1=NCCN1
Result: > 100 µM (inactive)

Ask: # GI50 lookup, item C(=N\c1ccc(-c2nc3ccccc3s2)cc1)/c1ccc[nH]1
Result: 18.2 µM (inactive)

Ask: # GI50 lookup, item Cc1nc(NC(C)(CO)CO)nc(N/N=C/c2ccc(Cl)cc2)c1C(=O)Nc1ccc(Cl)cc1
Result: > 100 µM (inactive)

Ask: # GI50 lookup, item CC(C)(C)OC(=O)NC1CCC(C(C)(C)C)CC1 (stereo unspecified)
Result: 33.2 µM (inactive)

Ask: # GI50 lookup, item Cc1cc(C)c2nc3c(c(C(O)C4CCCCN4)c2c1)CC/C3=C\c1ccc(Cl)cc1 (stereo unspecified)
Result: > 100 µM (inactive)

Ask: # GI50 lookup, item CN(Cc1cc(Cl)cc(Cl)c1)CC(C(=O)c1ccccc1)c1ccccc1 (stereo unspecified)
Result: 8 µM (inactive)

Ask: # GI50 lookup, item CC1=C2CC[C@@]3(C)C(=CCC3O)C2(C)CCC1=O (stereo partly specified)
Result: > 100 µM (inactive)

Ask: # GI50 lookup, item CCOc1ccc(/N=N/C2C(=O)N(C(=O)CC(=O)Nc3ccc(C)cc3)N=C2C)cc1 (stereo unspecified)
Result: 47.5 µM (inactive)

Ask: # GI50 lookup, item O=C1/C(=C\c2cccc(Oc3ccccc3)c2)SC(c2ccccc2)N1c1ccccc1 (stereo unspecified)
Result: > 100 µM (inactive)

Ask: # GI50 lookup, item CC(=O)OCCC[C@@H]1C(=C(C)C)CCC2[C@@]1(C)CC[C@@]1(C)C[C@](C)(CCC=C(C)C)CC[C@]21C (stereo partly specified)
Result: > 100 µM (inactive)

Ask: # GI50 lookup, item Cn1c(-c2c(C3=CC(=O)N(c4ccccc4)C3=O)c3ccccc3n2C)cc2ccccc21
Result: 7.41 µM (inactive)

Ask: # GI50 lookup, item O=C(NC(O)(C(F)(F)F)C(F)(F)F)c1ccccc1
Result: > 100 µM (inactive)

Ask: # GI50 lookup, item CC(C)(C)OC(=O)NC(Cc1c[nH]cn1)C(=O)N1CCCC1C(N)=O (stereo unspecified)
Result: > 100 µM (inactive)

Ask: # GI50 lookup, item O=S1(=O)c2ccccc2-c2nccc3ccnc1c23
Result: 21.8 µM (inactive)

Ask: # GI50 lookup, item O=c1[nH][nH]c(=S)c(=O)[nH]1
Result: > 100 µM (inactive)

Ask: # GI50 lookup, item CC1=NN(C(=O)CSc2nnc(SCC(=O)N3N=C(C)CC3(O)c3ccccc3)s2)C(O)(c2ccccc2)C1 (stereo unspecified)
Result: 99.1 µM (inactive)

Ask: # GI50 lookup, item CCCCn1c(-c2ccccc2)cs/c1=N\NC(=O)Cn1c(C)nc2ccccc21
Result: 35.7 µM (inactive)

Ask: # GI50 lookup, item CC1(C)CC(=O)C2=C(C1)NC1=C(C2)C(=O)CC(C)(C)C1
Result: > 100 µM (inactive)
